biological target: T1, Peptide-17 (cysteine pairing not given here; also: biotinylated (site not given here)); test: ELISA, Fab on captured biotin-peptide
T1 peptide: IDFCLLYDWPICGR
Where no end group is shown, it is not given here.
assayEndpoint: pEC50
As a rule, pEC50 stands for the negative log10 of the concentration, concentration in M.

Enquiry: Which pEC50 value is on record for TBD-1 wt (Fab, V domains shown, Fab; the heavy chain entry is VH-CH1; also called wild-type anti-TROP2 Fab (hRS7); TROP2 Fab) VH: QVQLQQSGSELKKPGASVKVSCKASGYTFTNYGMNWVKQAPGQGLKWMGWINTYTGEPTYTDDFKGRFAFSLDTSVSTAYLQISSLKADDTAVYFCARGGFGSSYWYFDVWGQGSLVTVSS VL: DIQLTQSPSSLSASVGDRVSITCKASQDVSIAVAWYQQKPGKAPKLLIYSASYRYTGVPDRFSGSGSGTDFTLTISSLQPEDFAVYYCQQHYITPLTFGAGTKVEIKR ?
Return: 6.88

---
Enquiry: Which pEC50 value is on record for TBD-11 (HC R98A) (Fab, V domains shown, Fab; also called HC R98A mutant) VH: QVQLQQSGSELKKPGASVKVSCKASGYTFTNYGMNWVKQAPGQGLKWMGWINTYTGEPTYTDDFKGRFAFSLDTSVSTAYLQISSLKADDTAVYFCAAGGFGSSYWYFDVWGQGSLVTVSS VL: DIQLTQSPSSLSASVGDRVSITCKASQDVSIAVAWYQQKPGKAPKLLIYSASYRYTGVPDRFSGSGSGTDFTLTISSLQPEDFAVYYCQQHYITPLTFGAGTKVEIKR ?
Return: 6.72

Enquiry: Which pEC50 value is on record for TBD-22 (HC D109A) (Fab, V domains shown, Fab; also called HC D109A mutant) VH: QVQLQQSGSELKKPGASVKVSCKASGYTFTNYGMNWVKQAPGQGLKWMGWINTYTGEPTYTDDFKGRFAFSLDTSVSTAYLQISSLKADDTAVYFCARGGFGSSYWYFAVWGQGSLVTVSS VL: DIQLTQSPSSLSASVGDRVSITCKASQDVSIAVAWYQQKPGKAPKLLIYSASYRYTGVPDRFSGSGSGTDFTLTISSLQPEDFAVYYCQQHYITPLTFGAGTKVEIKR ?
Return: 8.59
